Listed here: items and their measured pIC50.
- Tested on: K562 cell line
- ASSAY NOTES: CCK-8 anti-proliferative assay, K562
- Type: cell-based
- RECORDED CONDITIONS: Homo sapiens, 72 h; K562, culture for 3 days, CCK-8, Table 2; read-out: IC50
# log scale: pIC50 equals minus log10 of the concentration in mol/L

Task: Field: pIC50 (K562 cell line). Entry: `CC(C)(C)c1cccc(Nc2c(N[C@H]3CC[C@H](Oc4ccc([N+](=O)[O-])cc4)CC3)c(=O)c2=O)c1`
Result: 5.29

Task: Field: pIC50 (K562 cell line). Entry: `N#Cc1cc(Nc2c(N[C@H]3CC[C@H](Oc4ccc(C(F)(F)F)cc4)CC3)c(=O)c2=O)cc(C(F)(F)F)c1`
Result: 5.40

Task: Field: pIC50 (K562 cell line). Entry: `N#Cc1ccc(O[C@H]2CC[C@H](Nc3c(Nc4cccc(C(F)(F)F)c4)c(=O)c3=O)CC2)cc1`
Result: 5.23

Task: Field: pIC50 (K562 cell line). Entry: `O=c1c(Nc2cccc(C(F)(F)F)c2)c(N[C@H]2CC[C@H](Oc3ccc(C(F)(F)F)cc3)CC2)c1=O`
Result: 5.40

Task: Field: pIC50 (K562 cell line). Entry: `CC(C)(C)c1cccc(Nc2c(N[C@H]3CC[C@H](Oc4ccc(C(F)(F)F)cc4)CC3)c(=O)c2=O)c1`
Result: 5.17

Continuing:
Task: Field: pIC50 (K562 cell line). Entry: `CC(C)(C)c1cccc(Nc2c(N[C@H]3CC[C@H](Oc4ccc(C#N)cc4)CC3)c(=O)c2=O)c1`
Result: 5.39

Task: Field: pIC50 (K562 cell line). Entry: `CC(C)(C)c1cccc(Nc2c(N[C@H]3CC[C@H](Oc4ccc(S(C)(=O)=O)cc4)CC3)c(=O)c2=O)c1`
Result: 5.24

---

- Tested on: K562 cell line
- ASSAY NOTES: CCK-8 anti-proliferative assay, K562
- Format: cell-based
- RECORDED CONDITIONS: Homo sapiens, 72 h; K562, culture for 3 days, CCK-8, Table 3 (identical to Example 2); tested 0-20 μM; read-out: IC50 K562
In this scheme, each record receives a class according to its IC50; the ranges are band 1: < 5 µM; band 2: ≥ 5 µM and < 10 µM; band 3: ≥ 10 µM

Look over these answered cases.
Task: Hey, which category is N#Cc1cc(Nc2c(N[C@H]3CC[C@H](Oc4ccc(C(F)(F)F)cc4)CC3)c(=O)c2=O)cc(C(F)(F)F)c1 [Compound 83] in, do you know?
Result: band 1

Task: Hey, which category is CC(C)(C)c1cccc(Nc2c(N[C@H]3CC[C@H](Oc4ccc(C#N)cc4)CC3)c(=O)c2=O)c1 [Compound 29] in, do you know?
Result: band 1

Task: Hey, which category is O=c1c(Nc2cccc(C(F)(F)F)c2)c(N[C@H]2CC[C@H](Oc3ccc([N+](=O)[O-])cc3)CC2)c1=O [Compound 25] in, do you know?
Result: band 3

Task: Hey, which category is O=c1c(Nc2cccc(Cl)c2)c(N[C@H]2CC[C@H](Oc3ccc([N+](=O)[O-])cc3)CC2)c1=O [Compound 20] in, do you know?
Result: band 3

Task: Hey, which category is N#Cc1ccc(O[C@H]2CC[C@H](Nc3c(Nc4cccc(C(F)(F)F)c4)c(=O)c3=O)CC2)cc1 [Compound 24] in, do you know?
Result: band 2

Task: Hey, which category is CC(C)(C)c1cccc(Nc2c(N[C@H]3CC[C@H](Oc4ccc(S(C)(=O)=O)cc4)CC3)c(=O)c2=O)c1 [Compound 31] in, do you know?
Result: band 2

Continuing:
Task: Hey, which category is CC(C)(C)c1cccc(Nc2c(N[C@H]3CC[C@H](Oc4ccc(C(F)(F)F)cc4)CC3)c(=O)c2=O)c1 [Compound 28] in, do you know?
Result: band 2

Task: Hey, which category is O=c1c(Nc2cccc(C(F)(F)F)c2)c(N[C@H]2CC[C@H](Oc3ccc(C(F)(F)F)cc3)CC2)c1=O [Compound 23] in, do you know?
Result: band 1

Task: Hey, which category is CS(=O)(=O)c1ccc(O[C@H]2CC[C@H](Nc3c(Nc4cc(C#N)cc(C(F)(F)F)c4)c(=O)c3=O)CC2)cc1 [Compound 86] in, do you know?
Result: band 3
